Entries and their caspase-3 activation values follow.
# protocolText: Cellular Toxicity (caspase-3) Jurkat (AID 655);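 also: cells exposed to compound for 16 h at 37 °C before reading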
# conditionLabel: Jurkat caspase-3 activation, luminescence; at 92.2 µM (top of the series), DMSO = 0%, tamoxifen = 100%
Records with an inconclusive call do not appear.
Give the quantity in %, number only.

compoundStructureString	caspase-3 activation / %
CCOc1ccc2c(c1)C(C)=CC(C)(C)N2	15.7
O=C(O)CCC(=O)C(=O)O	0.778
IC(I)I	-0.0373
CC(C)(C)NC(=O)[C@@H]1C[C@@H]2CCCC[C@@H]2CN1C[C@@H](O)[C@H](Cc1ccccc1)NC(=O)[C@H](CC(N)=O)NC(=O)c1ccc2ccccc2n1	116

In the following, a different compound is considered.
Quick note, caspase-3 activation for Nc1ccn([C@H]2CS[C@@H](CO)O2)c(=O)n1 landed at -0.771

* * *

# System: KB-3-1
# protocolText: Cytotoxic Profiling of Annotated Libraries Using Quantitative High-Throughput Screening (AID 1296008); also: nearly all actives have a fitted effect of over 60% in size; also: potency is read from the fitted curve at half-maximal effect
# conditionLabel: Five cell lines viability, CellTiter-Glo ATP luminescence, 48-72 h
Records with an inconclusive call do not appear. Calls of active or inactive are those of the source. The call rests on the fitted dose curve; in most records, active means well fitted inhibition curve with a large enough effect; inconclusive means small, poorly fitted or top-dose-only effect; inactive means flat fitted curve, though single readings scatter. *1 amine or outer side, *2 acyl side, *3 side chain or, on linkers, in order; H or OH if unused. Where a SMILES comes first, the peptide text is derived from it. Bridges are numbered along the chain shown (N, C = ends). X6 = O=C(CCC[*:2])[*:1]
measuredMetric: Potency

Some solved entries appear below for comparison.
compound	measuredMetric	readoutValue
COc1cc(C2c3cc(O)c(OC)cc3CC(CO)C2CO)ccc1O (stereo not drawn)	Potency	inactive
COc1ccc(/C=C/C(=O)O[C@H]2[C@@H]3C=CO[C@@H](O[C@@H]4O[C@H](CO)[C@@H](O)[C@H](O)[C@H]4O)[C@@H]3[C@@]3(CO)O[C@@H]23)cc1O	Potency	inactive
Cc1cc(Nc2ncc(Cl)c(Nc3ccccc3S(=O)(=O)C(C)C)n2)c(OC(C)C)cc1C1CCNCC1	Potency	18.4 µM (active)
C=C1[C@H]2[C@H](O[C@@H]3O[C@H](COC(=O)/C=C/c4cc(OC)c(O)c(OC)c4)[C@@H](O)[C@H](O)[C@H]3O)OC=C(C(=O)O)[C@H]2C[C@@H]1O	Potency	inactive
COc1cc(COC2OC(CO)C(O)C(O)C2O)cc(OC)c1O (stereo not drawn)	Potency	inactive

Data point: CC1(C)O[C@@]2(C)CC[C@@H]1C[C@@H]2OC1OC(CO)C(O)C(O)C1O (stereo partly drawn) ; Potency = inactive

Lab note: measured Potency of CC(=O)OC[C@]12[C@H](OC(C)=O)C(=O)[C@@H]3[C@@H](OC(C)=O)[C@@]14O[C@@]3(C)COC(=O)c1cccnc1[C@@H](C)[C@H](C)C(=O)O[C@@H]([C@H](OC(C)=O)[C@@H]2OC(C)=O)[C@]4(C)O was inactive

Query COc1c(C)c(OCC=C(C)C)cc2c1C(=O)NC2=O yields Potency of inactive

Noted for COC(=O)C1(Cc2ccc(O)cc2)OC(=O)C(OC)=C1c1ccc(O)cc1 (stereo not drawn) : its Potency reads inactive

Memo: CC[C@H](C)[C@@H]1NC(=O)[C@H](Cc2ccc(OC)cc2)NC(=O)CCCSC[C@@H](C(=O)N2CCC[C@H]2C(=O)N[C@@H](CC(C)C)C(=O)NCC(N)=O)NC(=O)[C@H](CC(N)=O)NC(=O)[C@H](CCC(N)=O)NC1=O (Y(Me)IQNCPLG-NH2; linker N-5 via X6) , reported Potency: inactive

Short answer for CC(C)C1=CC2=CCC3[C@](C)(CCC[C@@]3(C)C(=O)O)C2CC1O (stereo partly drawn) : Potency was inactive

What the record says about CC1(CO)CC[C@]2(C(=O)O[C@@H]3O[C@H](CO)[C@@H](O)[C@H](O)[C@H]3O)CC[C@]3(C)C(=CCC4[C@@]5(C)C[C@H](O)[C@H](O[C@@H]6OC[C@@H](O)[C@H](O)[C@H]6O)[C@@](C)(CO)C5CC[C@]43C)C2C1 (stereo partly drawn) : Potency is inactive

GET /value?item= CC1OC(OC2C(CO)OC(OCC3OC(OC(=O)C45CCC(C)(C)CC4C4=CCC6C7(C)CCC(OC8OC(C(=O)O)C(O)C(OC9OC(CO)C(O)C(O)C9O)C8O)C(C)(C)C7CCC6(C)C4(C)CC5)C(O)C(O)C3O)C(O)C2O)C(O)C(O)C1O (stereo not drawn) &field=Potency returns inactive

* * *

In this section we review reported max response values for a set of molecules.
# protocolText: qHTS Assay for Identifying Gametocytocidal Compounds (AID 743244);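 also: % is scaled to controls: 0 for no effect and ±100 for the full control effect; actives lower the fluorescent signal which means gametocytes are killed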
# conditionLabel: P. falciparum 3D7 stage III-V gametocytes, alamarBlue, 72 h; hits give low values
Results filed as inconclusive are left out.
// return numeric value only (unit: %, not printed)

Check out these entries, answers already filled in.
molecule	max response, %
N[C@H](C(=O)O)[C@@H]1CC(Cl)=NO1	8.42
C[C@@H]1C[C@H]2[C@@H]3CCC4=CC(=O)C=C[C@]4(C)[C@@]3(F)[C@@H](O)C[C@]2(C)[C@@]1(O)C(=O)COP(=O)(O)O	10.9
COCC(=O)Nc1cc(Sc2ccccc2)ccc1N=C(NC(=O)OC)NC(=O)OC	-1.05
C[C@@H]1CCN(C(=O)CC#N)C[C@@H]1N(C)c1ncnc2[nH]ccc12	9.63
CCOc1ccc(N=Nc2ccc(N)cc2N)cc1	4.91

Cc1cn([C@H]2C[C@H](O)[C@@H](CO)O2)c(=O)[nH]c1=O yielded max response of 5.37

Just so you know, measured max response for CC1=CCC(C(C)(C)O)CC1 (stereo not drawn) came out at -0.0478

The molecule Nc1c(Br)cc(Br)cc1CNC1CCC(O)CC1 (stereo not drawn) showed max response equal to 19

For record OC[C@H]1O[C@@H](OCCc2ccc(O)cc2)[C@H](O)[C@@H](O)[C@@H]1O the listed max response is 2.01

Recorded result, O=S(=O)(O)O , max response: -4.98

For CCC(=O)OCC(=O)[C@@]1(OC(=O)CC)[C@H](C)C[C@H]2[C@H]3[C@H]([C@@H](O)C[C@@]21C)[C@@]1(C)C=CC(=O)C=C1C[C@H]3Cl the molecule record lists max response as -4.51

max response in this record for CO/N=C(\C(=O)N[C@@H]1C(=O)N2C(C(=O)O)=C(CSc3cnns3)CS[C@H]12)c1csc(N)n1 : 2.82

Quick note, max response for CC(C(=O)O)c1ccc(N2Cc3ccccc3C2=O)cc1 (stereo not drawn) landed at 8.38

* * *

# System: NIH3T3
# protocolText: Cytotoxic Profiling of Annotated Libraries Using Quantitative High-Throughput Screening (AID 1296008); also: nearly all actives have a fitted effect of over 60% in size; as to max response: % is scaled to controls: 0 for no effect and ±100 for the full control effect
# conditionLabel: Five cell lines viability, CellTiter-Glo ATP luminescence, 48-72 h; hits give low values
# Description: Cell-based phenotypic screening is a commonly used approach to discover biological pathways, novel drug targets, chemical probes and high-quality hit-to-lead molecules. […] A pintool (Kalypsys) was used to transfer 23 nL of compound solution to the 1536-well assay plates. […] Plates were left at room temperature for 10 min before imaging the ATP-coupled luminescence using a ViewLux microplate imager (PerkinElmer, Waltham, MA).
Results filed as inconclusive are left out.
measuredMetric: max response (%)
State the answer as a number, implicitly in %.

compound	measuredMetric	readoutValue
CCC/C=C/C(=O)O[C@H]1CC(C)(C)CC2[C@]13[C@H](O)O[C@@]21CCC2[C@@]4(C)CC[C@H](O[C@@H]5O[C@H](C(=O)O)[C@@H](O)[C@H](O[C@@H]6O[C@H](CO)[C@H](O)[C@H](O)[C@H]6O[C@@H]6O[C@@H](C)[C@H](O)[C@@H](O)[C@H]6O[C@@H]6OC[C@](O)(CO)[C@H]6O)[C@H]5O[C@@H]5O[C@H](CO)[C@H](O)[C@H](O)[C@H]5O)C(C)(C)C4CC[C@@]2(C)[C@]1(C)C[C@H]3OC(C)=O (some centres not stated)	max response	0.954

max response for OC[C@H]1O[C@@H](OC(CCCCc2ccc(O)cc2)CCc2ccc(O)cc2)[C@H](O[C@@H]2OC[C@](O)(CO)[C@H]2O)[C@@H](O)[C@@H]1O (some centres not stated) is 2.54

* * *

# testedSystem: Calcium and integrin-binding protein 1 (Homo sapiens) (UniProt Q99828)
# Sequence (Q99828 whole entry, looked up): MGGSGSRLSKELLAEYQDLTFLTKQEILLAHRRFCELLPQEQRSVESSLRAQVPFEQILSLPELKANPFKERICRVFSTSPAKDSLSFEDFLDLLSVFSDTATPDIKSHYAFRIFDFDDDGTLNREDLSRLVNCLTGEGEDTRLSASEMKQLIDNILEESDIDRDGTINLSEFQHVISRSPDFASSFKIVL
# protocolText: Primary qHTS for Identification of Calcium Integrin Binding Protein 1 (CIB1) Competitor (AID 1508620);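 also: GST tagged CIB1 binding a fluorescein labelled alphaIIb integrin peptide tracer; top concentration of the series differs between compounds; % is scaled to controls: 0 for no effect and ±100 for the full control effect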
# conditionLabel: CIB1-GST / FITC-alphaIIb peptide fluorescence polarization; series mostly up to 57.7 µM
# Source text: Assay Provider: Ulhas P. Naik, PhD Sidney Kimmel Medical College Thomas Jefferson University, Philadelphia, PA Primary function of platelets is to maintain hemostasis. At the site of vascular injury, platelets adhere to adhesive proteins such as collagen and von Willebrand factor. […] PROTOCOL TABLES SEQUENCE No. (1, 2, 3, etc.); […] […] 7; ViewLux Fluorescent Polization Read: excitation = 480(20) / emission = 540(25) S and P; FITC Dichroic mirror.
Results filed as inconclusive are left out. Calls of active or inactive are those of the source. Calls follow the shape of the dose curve; as a rule, active = well fitted inhibition curve with a large enough effect; inconclusive = small, poorly fitted or top-dose-only effect; inactive = flat fitted curve, though single readings scatter.
measuredMetric: activity change, negative = inhibition

compound	testedSystem	readoutValue
CC1(O)CCC2C(C(=O)O)=COC(OC3OC(CO)C(O)C(O)C3OC(=O)/C=C/c3ccc(O)cc3)C21 (centres undefined)	Calcium and integrin-binding protein 1 (Homo sapiens) (UniProt Q99828)	inactive
COc1cc(/C=C/C(=O)OC(C)(C)C(OC2OC(CO)C(O)C(O)C2O)C(=O)OCc2ccc(OC3OC(CO)C(O)C(O)C3O)cc2)ccc1O (centres undefined)	Calcium and integrin-binding protein 1 (Homo sapiens) (UniProt Q99828)	inactive
COc1ccc(C(OC2OC(CO)C(O)C(O)C2O)C(C)O)cc1 (centres undefined)	Calcium and integrin-binding protein 1 (Homo sapiens) (UniProt Q99828)	inactive
C[C@@H]1O[C@@H](O[C@@H]2[C@@H](O)[C@H](O[C@@H]3[C@@H](O)[C@@H](O)[C@H](O[C@H]4[C@H](OC(=O)[C@]56CCC(C)(C)C[C@H]5C5=CCC7[C@@]8(C)C[C@H](O)[C@H](O[C@@H]9O[C@H](C(=O)O)[C@@H](O)[C@H](O)[C@H]9O)[C@@](C)(CO)C8[C@H](O)C[C@@]7(C)[C@]5(C)CC6)OC[C@H](O)[C@@H]4O)O[C@H]3C)OC[C@H]2O)[C@H](O)[C@H](O)[C@H]1O (some centres undefined)	Calcium and integrin-binding protein 1 (Homo sapiens) (UniProt Q99828)	3.71% [at 12.4 µM] (inactive)

The measurements presented in this section are drawn from PubChem BioAssay (NCATS).
